- Protocol: The drug is tested on Bacteroides dorei strain: DSM17855 for biotransformation. The drug concentrations were measured before and after a 12-h incubation by liquid-chromatography-coupled mass spectrometry (LC–MS)
- Test parameters: phocaeicola dorei, 2 µM
Recorded metric: Bacterial Biotransformation

// known answers, use as guide
Molecule	Bacterial Biotransformation
COc1cc2nc(N3CCN(C(=O)C4CCCO4)CC3)nc(N)c2cc1OC (stereo not drawn)	Compound NOT metabolized
Cc1cc2c(cc1S(N)(=O)=O)S(=O)(=O)CCC2	Compound NOT metabolized
CN1CCc2c(c3ccccc3n2Cc2ccccc2)C1.CN1CCc2c(c3ccccc3n2Cc2ccccc2)C1.O=S(=O)(O)c1cccc2c(S(=O)(=O)O)cccc12	Compound NOT metabolized
CC(C)c1nc(N(C)S(C)(=O)=O)nc(-c2ccc(F)cc2)c1/C=C/[C@@H](O)C[C@@H](O)CC(=O)[O-].CC(C)c1nc(N(C)S(C)(=O)=O)nc(-c2ccc(F)cc2)c1/C=C/[C@@H](O)C[C@@H](O)CC(=O)[O-].[Ca+2]	Compound NOT metabolized
N#Cc1ccc2c(c1)N(CCCN1CCC(O)CC1)c1ccccc1S2	Compound metabolized
CC(C)C[C@H]1C(=O)N2CCC[C@H]2[C@]2(O)O[C@](NC(=O)[C@@H]3C=C4c5cccc6[nH]c(Br)c(c56)C[C@H]4N(C)C3)(C(C)C)C(=O)N12.CS(=O)(=O)O [BROMOCRIPTINE MESYLATE]	Compound metabolized
CCOc1cc(CC(=O)N[C@@H](CC(C)C)c2ccccc2N2CCCCC2)ccc1C(=O)O [REPAGLINIDE]	Compound metabolized

# next molecule below
Please fill in: Bacterial Biotransformation reported for CCOc1ccccc1OCCN[C@H](C)Cc1ccc(OC)c(S(N)(=O)=O)c1.Cl [TAMSULOSIN HYDROCHLORIDE] = Compound NOT metabolized

====

- Protocol: The drug is tested on Bacteroides dorei strain: DSM17855 for biotransformation. The drug concentrations were measured before and after a 12-h incubation by liquid-chromatography-coupled mass spectrometry (LC–MS)
- Test parameters: phocaeicola dorei, 2 µM
Recorded metric: Bacterial Biotransformation

Compound	Reading
C[C@]12C=CC(=O)C=C1CC[C@@H]1[C@@H]2C(=O)C[C@@]2(C)[C@H]1CC[C@]2(O)C(=O)CO	Compound NOT metabolized
CCCC(C)(COC(N)=O)COC(=O)NC(C)C (stereo unspecified)	Compound metabolized
CC(C)(Oc1ccc(CCNC(=O)c2ccc(Cl)cc2)cc1)C(=O)O [BEZAFIBRATE]	Compound metabolized
CCCN(CCC)CCc1cccc2c1CC(=O)N2	Compound NOT metabolized
CC(=O)Oc1ccc(C(c2ccc(OC(C)=O)cc2)c2ccccn2)cc1	Compound metabolized
O=C(NC(Cc1cc(=O)[nH]c2ccccc12)C(=O)O)c1ccc(Cl)cc1 (stereo unspecified) [REBAMIPIDE]	Compound metabolized

Record Nc1nc(NC2CC2)c2ncn([C@H]3C=C[C@@H](CO)C3)c2n1.Nc1nc(NC2CC2)c2ncn([C@H]3C=C[C@@H](CO)C3)c2n1.O=S(=O)(O)O [ABACAVIR SULFATE] . Reported Bacterial Biotransformation: Compound NOT metabolized

What the record says about CN1CCN(C2=Nc3cc(Cl)ccc3Nc3ccccc32)CC1 : Bacterial Biotransformation is Compound NOT metabolized

Bacterial Biotransformation recorded for this compound, CC(C)NCC(O)COc1ccc(COCCOC(C)C)cc1.CC(C)NCC(O)COc1ccc(COCCOC(C)C)cc1.O=C(O)/C=C/C(=O)O (stereo unspecified) [BISOPROLOL FUMARATE] , is Compound NOT metabolized

Given item C[C@@H](c1ncncc1F)[C@](O)(Cn1cncn1)c1ccc(F)cc1F , the value recorded as its Bacterial Biotransformation is Compound metabolized

Value of measured Bacterial Biotransformation for the entry CCN(CC)C(=O)C1(c2ccccc2)CC1CN (stereo unspecified) : Compound NOT metabolized
